- System: Saccharomyces cerevisiae
- Method Description: protein stability index of tFT-peptide fusion (C-terminal peptide) (PSI (0-1 scale)); higher = more stable (slower turnover);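 further: PSI is a weighted mean of sequencing reads over stability bins, variants kept only with over 10 reads, mCherry proximal and sfGFP distal, peptide attached via GGGS linker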
- Condition Summary: genetic background: wild type; temperature: 30 C
Endpoint: protein stability index

In one line, give reported protein stability index of the entry `FFLRLCTPPYFH` .
0.651

Quote protein stability index reported for `VKVWRTILRLLD` please.
0.535

For the sequence `ISMSDFRLFAIW` , give its reported protein stability index.
0.665

----------
- Test system: Saccharomyces cerevisiae
- Method Description: protein stability index of tFT-peptide fusion (C-terminal peptide) (PSI (0-1 scale)); higher = more stable (slower turnover)
- Condition Summary: genetic background: cdc34-1; temperature: 37 C
Give protein stability index for every item shown.
Answer using only a numeral; do not append any unit.

Please give the documented protein stability index of `LGRFHLACLLFL`
0.588

Supply protein stability index value. Item: `VEIKSKRMLVVI`
0.511

Annotate the sequence `SVVFFYPPIFHA` with its measured protein stability index.
0.636

Supply measured protein stability index of `MCRMYELYVTSS` in your reply.
0.504

Quick one: give measured protein stability index for `RHTVFFCQLLLV`
0.291

Give the reported value of protein stability index for this record: `RFHTFVFCLLCL`
0.407

Give reported protein stability index value for `VVSLGGWCLYIY`
0.423

Query protein stability index for `VGRANLSVIRKV`
0.632

Provide protein stability index value for the following sequence: `VSVFSLFLFLRV`
0.25

Answer with the recorded protein stability index of `PVCRQVGVRLVA` only.
0.582

Determine its reported protein stability index: `NQIIRLIVGLLC`
0.55

State its protein stability index for this sequence: `TSFLHLFVAAII`
0.588

Determine from records and report protein stability index for `LCGIFTFRLSLL`
0.693

Quickly give me recorded protein stability index for `CLTGWFGIFSAP`
0.708

Input `DVVVIFGILCYC` , output reported protein stability index.
0.0711

Return the recorded protein stability index value; entry: `GGGGGGGDVLVW`
0.265

Consider the sequence `FMPFSLLALFVW` . State its measured protein stability index.
0.286

Look up protein stability index of `RTFPYSALSFVS` and report it.
0.618

Write down protein stability index measured for item `SSVLWVMFVFFY`
0.313

Give protein stability index for the following sequence: `NDSSWEVSLMVG`
0.693

Find the measured protein stability index of `TSPYTSFAHTSL` and report it.
0.694

Supply protein stability index value. Item: `LLLTAIRVLRMH`
0.561

Provide one value: measured protein stability index of `FNLTCLLISFFN`
0.593

Input `LPLPPPGSPPPL` , output reported protein stability index.
0.653

Look up and state reported protein stability index for `GGCYAGVAMRLI`
0.653

State its protein stability index: `RDTTQRRRKTAA`
0.657

----------
- System: Saccharomyces cerevisiae
- Method Description: protein stability index of tFT-peptide fusion (C-terminal peptide) (PSI (0-1 scale)); higher = more stable (slower turnover)
- Condition Summary: genetic background: das1 deletion; temperature: 30 C
Endpoint: protein stability index
Please reply with the value in numeric form only.

Please give the documented protein stability index of `SFLVRFVYFFAL`
0.549

Write down protein stability index measured for item `FMPFSLLALFVW`
0.267

Let me know recorded protein stability index for `ISFQFFVCLCAR` , thanks.
0.159

Quickly give me recorded protein stability index for `VLLSSSLVFLIS`
0.522

Please give the documented protein stability index of `RFCLPLRLPVTT`
0.461

Look up and state reported protein stability index for `FVMTYCLMSVSK`
0.0746

Supply protein stability index value. Item: `RLILAIVVSGGL`
0.295

Answer with the recorded protein stability index of `SIPFWPVLFFLL` only.
0.494

Quote protein stability index reported for `DSTLLYRPPSPA` please.
0.646

Tell me protein stability index reported for `FFFVLVSGWWGV`
0.237

Give me measured protein stability index, please, for this sequence: `FLLFSFFFFFFF`
0.409

Name the recorded protein stability index of the sequence listed here: `LFGRVLSGILSV`
0.567

Dear colleague, please send me the reported protein stability index for `PPTRVPVTLFLV` when you can.
0.619

Please give the documented protein stability index of `GWRRRIWLCRLQ`
0.7

Specify protein stability index for `RSYAYIIVATVA` and stop.
0.182

For the sequence `LLLVPLLAFSAS` , give its reported protein stability index.
0.473

Give the reported value of protein stability index for this record: `VTFWISLVYVLV`
0.18

Please report protein stability index for the following sequence: `SSVLLMFFCFVC`
0.318

Output protein stability index of `VEQLLYIKATNV`
0.609

// Input: `VFFLLSVYMVMM` . Output its protein stability index only.
0.195

Please list protein stability index recorded for the sequence `WQIGIYILQGLA`
0.242

Report protein stability index for `WVGGVLLSVVGG`
0.213

Return value of protein stability index for input `VFLPVMVFFTFS` , no commentary.
0.277

Determine from records and report protein stability index for `CLCVLVSFFFGL`
0.35

Complete the entry with protein stability index for `VSGEWSFLVRVQ`
0.452

Report protein stability index for `CLCFFMSILWWV`
0.434

Give reported protein stability index value for `RLGSLVPLAKQL`
0.673

Kindly indicate its recorded protein stability index. Item: `AHPTLILTNKIA`
0.643

Entry `LGRFHLACLLFL` needs its protein stability index filled in; supply it.
0.486

Please list protein stability index recorded for the sequence `GLLLVWAALGFV`
0.28

Tell me protein stability index reported for `FSVSYFRLVRLC`
0.458

Fill in protein stability index for record `GDINRNTRYLEK`
0.648

----------
- Tested on: Saccharomyces cerevisiae
- Method Description: protein stability index of tFT-peptide fusion (C-terminal peptide) (PSI (0-1 scale)); higher = more stable (slower turnover)
- Condition Summary: genetic background: wild type; temperature: 30 C
Grouping rule (protein stability index): lower level (below 0.6), middle level (0.6 to below 0.7), upper level (0.7 or more)

Hi, small favor: classify `FQGRLILCIETR` by its protein stability index when you get a moment.
lower level

Lab note: sort `SVPRTRAPRLIS` into the matching protein stability index band.
lower level

Which class is correct for the following sequence? `PPTRVPVTLFLV`
lower level

Quick check: band for `RSWGRVCFGGVV`
middle level

Lab note: which band did `DKTPRSHKKTAE` land in?
upper level

Could you place `NDSSWEVSLMVG` in its proper category? Many thanks.
lower level

Sort `SSTSPPPVTPPD` into one of the categories.
middle level

Quick check: band for `AAGGPGGPELWG`
upper level

Kindly state the category for this sequence: `PPPPGSKPPPSP`
upper level

----------
- System: Saccharomyces cerevisiae
- Method Description: protein stability index of tFT-peptide fusion (C-terminal peptide) (PSI (0-1 scale)); higher = more stable (slower turnover)
- Condition Summary: genetic background: das1 deletion; temperature: 30 C
Classification field: T = protein stability index at or over 0.4; F = protein stability index under 0.4.

Decide: protein stability index of `LGGCVSYINLLA` >= 0.4?
T

Say whether `LILIVVVAGSVG` shows protein stability index of 0.4 or more.
F

Would you say `VCGYGFAVPCYT` shows protein stability index at minimum 0.4?
F

Does the reported protein stability index for `SSFFFLFCFFPS` fall at or above the 0.4 mark?
T

Reported protein stability index at or above 0.4? `DYRCWCAILVSS`
F

Determine whether this sequence has protein stability index no lower than 0.4: `SVKRVVPCLVSC`
F

Quick check: does `DQPLWIGVLAYC` have protein stability index greater than or equal to 0.4?
F

Threshold query (protein stability index >= 0.4) on `VMFCRFPLRFGC`
T

Given `HVPPVFQASLSP` , state whether its protein stability index is at least 0.4.
T

Does the sequence `SIFWWWLVFILG` have recorded protein stability index that is 0.4 or more?
F

Confirm if protein stability index reported for the sequence `IGSFYVLSFICQ` is 0.4 or above.
T

Quick check: does `ARRFLVRRFILF` have protein stability index greater than or equal to 0.4?
T

Is it the case that `WFLFVLCAWGFF` has protein stability index reaching or exceeding 0.4?
F

Does `LYIQWVSRWSVQ` have a reported protein stability index of at least 0.4?
T

Kindly determine if protein stability index recorded for `MIILGFILYFFW` is above or exactly 0.4.
F

Form field: protein stability index at least 0.4? Entry: `FLLEVFVLGRTL`
T

Does `YVIGLLFVVSGV` have a reported protein stability index of at least 0.4?
F

----------
- Tested on: Saccharomyces cerevisiae
- Method Description: protein stability index of tFT-peptide fusion (C-terminal peptide) (PSI (0-1 scale)); higher = more stable (slower turnover)
- Condition Summary: genetic background: wild type; temperature: 30 C
Could you please report measured protein stability index for the items listed next?
# answer = number (no unit)

Please give measured protein stability index of the following entry: `GLCVTEFCGFFL`
0.705

For the sequence `RATSCAAPLLAR` , report protein stability index.
0.601

Tell us which protein stability index value is on record for `VYSLQSFSVRRY`
0.704

Give me measured protein stability index, please, for this sequence: `DWSHLLTSHAII`
0.703

For the sequence `KNEKNERKIATQ` , give its reported protein stability index.
0.682

Supply reported protein stability index belonging to this sequence: `LLESFCVSWCSW`
0.617

Hello, please tell me recorded protein stability index for this one: `HVGEVERGGMGG`
0.716
